The following binders are listed with their measured interaction score values.
target.desc: T1, 4H850-bN
T1 chain: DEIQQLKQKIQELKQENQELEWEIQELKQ
method.notes: two-hybrid library CCNG1;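 note: natural log of median RNA to DNA barcode read ratio; higher means stronger binding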
endpoint.name: interaction score

[
  {
    "binder": "DKNQQLKQEIQELEQKNQELEWKIQELKQ [4H3638-bN]",
    "endpoint.result": 0.801
  },
  {
    "binder": "DENQQLEQKIQELKQKNQELEWEIQELEQ [4H1393-bN]",
    "endpoint.result": -1.57
  },
  {
    "binder": "DENQQLEQKIQELEQKNQELKWEIQELKQ [4H1338-bN]",
    "endpoint.result": 0.8
  },
  {
    "binder": "DEIQQLKQKIQELKQENQELEWEIQELKQ [4H850-bN]",
    "endpoint.result": 0.186
  },
  {
    "binder": "DKNQQLKQEIQELEQKIQELKWKNQELEQ [4H3631-bN]",
    "endpoint.result": -1.06
  },
  {
    "binder": "DKNQQLEQEIQELKQKIQELEWENQELKQ [4H3172-bN]",
    "endpoint.result": -0.789
  },
  {
    "binder": "DENQQLEQKIQELKQEIQELKWKNQELEQ [4H1359-bN]",
    "endpoint.result": -0.294
  },
  {
    "binder": "DENQQLEQKIQELKQENQELKWKIQELEQ [4H1373-bN]",
    "endpoint.result": -0.952
  },
  {
    "binder": "DEIQQLKQEIQELKQKIQELKWENQELEQ [4H619-bN]",
    "endpoint.result": -0.223
  },
  {
    "binder": "DENQQLEQKNQELEQKIQELKWEIQELEQ [4H1449-bN]",
    "endpoint.result": -1.83
  },
  {
    "binder": "DEIQQLKQEIQELKQEIQELEWKNQELKQ [4H584-bN]",
    "endpoint.result": 0.196
  },
  {
    "binder": "DEIQQLKQEIQELEQKNQELKWEIQELKQ [4H570-bN]",
    "endpoint.result": 1.82
  },
  {
    "binder": "DKNQQLKQKIQELEQENQELEWEIQELKQ [4H3858-bN]",
    "endpoint.result": -1.15
  },
  {
    "binder": "DENQQLEQKIQELKQEIQELEWENQELKQ [4H1348-bN]",
    "endpoint.result": 0.761
  },
  {
    "binder": "DKNQQLKQKNQELEQEIQELEWKIQELKQ [4H3974-bN]",
    "endpoint.result": 0.5
  },
  {
    "binder": "DENQQLKQEIQELEQEIQELEWKNQELKQ [4H1544-bN]",
    "endpoint.result": 0.669
  },
  {
    "binder": "DKNQQLKQEIQELEQENQELKWKIQELEQ [4H3613-bN]",
    "endpoint.result": -0.0632
  },
  {
    "binder": "DENQQLKQKIQELKQKIQELKWENQELEQ [4H1899-bN]",
    "endpoint.result": -1.55
  },
  {
    "binder": "DENQQLKQKIQELEQEIQELKWENQELKQ [4H1804-bN]",
    "endpoint.result": 0.194
  },
  {
    "binder": "DENQELEKKIEELKRKIWELKKENQELER [4H1387-bH]",
    "endpoint.result": 0.44
  },
  {
    "binder": "DENQQLKQEIQELKQENQELKWKIQELEQ [4H1629-bN]",
    "endpoint.result": -0.949
  },
  {
    "binder": "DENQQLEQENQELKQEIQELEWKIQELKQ [4H1222-bN]",
    "endpoint.result": 0.741
  },
  {
    "binder": "DKNQQLKQEIQELEQKIQELKWENQELKQ [4H3628-bN]",
    "endpoint.result": -1.18
  },
  {
    "binder": "DKNQQLEQKIQELKQENQELEWKIQELKQ [4H3414-bN]",
    "endpoint.result": 0.132
  },
  {
    "binder": "DENQQLKQENQELEQKIQELKWKIQELKQ [4H1710-bN]",
    "endpoint.result": 0.177
  },
  {
    "binder": "DKNQQLEQEIQELEQKNQELKWEIQELEQ [4H3129-bN]",
    "endpoint.result": -1.41
  },
  {
    "binder": "DENQQLKQKNQELKQEIQELEWEIQELEQ [4H1985-bN]",
    "endpoint.result": -1.6
  },
  {
    "binder": "DKNQQLKQENQELKQKIQELKWEIQELEQ [4H3817-bN]",
    "endpoint.result": -0.947
  },
  {
    "binder": "DEIAQLKQEIAELEQKNAELEWKNAQLKQ [4H568-bA]",
    "endpoint.result": 0.0841
  }
]
